target: CYP2C9 (Homo sapiens, UniProt P11712); test: IC50 and IC50 shift on CYP2C9 marker reaction (diclofenac 4-hydroxylation) in HLM; assay type: in vitro ADME; design: tissue Corning Inc; host or cells: pooled human liver microsomes (150 donors); conditions: human, human liver microsomes, pH 7.5, probe diclofenac 4-hydroxylation (4.73 µM diclofenac), 30 min pre-incubation in the absence of NADPH
Sequence (P11712 whole entry): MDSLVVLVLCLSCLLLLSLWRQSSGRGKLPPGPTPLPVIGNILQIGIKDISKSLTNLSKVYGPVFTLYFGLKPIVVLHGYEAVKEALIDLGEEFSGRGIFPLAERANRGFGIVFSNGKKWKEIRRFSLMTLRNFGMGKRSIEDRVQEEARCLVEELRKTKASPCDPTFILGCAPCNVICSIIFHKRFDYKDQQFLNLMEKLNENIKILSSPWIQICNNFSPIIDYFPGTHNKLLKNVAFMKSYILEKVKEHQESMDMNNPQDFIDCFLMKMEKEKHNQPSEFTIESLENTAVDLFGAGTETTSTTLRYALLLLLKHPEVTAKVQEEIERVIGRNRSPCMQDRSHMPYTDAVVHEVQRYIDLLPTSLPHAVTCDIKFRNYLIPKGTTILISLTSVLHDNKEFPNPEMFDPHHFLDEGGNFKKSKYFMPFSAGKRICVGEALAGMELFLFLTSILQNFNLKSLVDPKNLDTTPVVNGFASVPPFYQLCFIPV
REPORTED METRIC: IC50 shift
Just the number.

MOLECULE: C[C@@H](c1ncnc(O)c1F)[C@](O)(Cn1cncn1)c1ccc(F)cc1F [OH–VRC, hydroxyvoriconazole]
IC50 shift: 0.997

// moving on: another record for IC50 shift
Exercise: Give the reported IC50 shift for C[C@@H](c1nc[n+]([O-])cc1F)[C@](O)(Cn1cncn1)c1ccc(F)cc1F [NO, voriconazole N-oxide] (system: CYP2C9 (Homo sapiens, UniProt P11712)).
Key: 1.34
